# Assay text: Evaluation of stability in plasma
# Format: in vitro ADME
# Condition details: human plasma, 37° C., read-out: T½
Endpoint name: half-life at 2 μM (min)

{"Molecule": "C[C@H](C(=O)Oc1ccc(C(=N)N2CCCC2)cc1)N(C)c1cccc(C(=N)N)c1 [compound of Ex. 5]", "half-life at 2 μM, min": 3.7}

(P) N=C(N)c1cccc(N2C[C@H](OCc3ccccc3)C[C@H]2C(=O)Oc2ccc(C(=N)N3CCCC3)cc2)c1 [compound of Ex. 13]
(Q) C[C@@H](C(=O)Oc1ccc(C(=N)N2CCCC2)cc1)N(C)c1cccc(C(=N)N)c1 [compound of Ex. 4]
Hi team, can someone confirm which has the larger half-life at 2 μM: P or Q ? Thanks. Which one? Tell me its label.
P
